# Tumor uptake per record follows
tested on: PSMA-positive 22rv1 tumor-bearing mouse; test: 177Lu labeling and animal biodistribution experiment, gamma counter; format: in vivo; details: 177Lu-labeled compound, 24 h after tail vein injection, n = 2
Numeric answer only, unit % ID/g assumed.

As a guide, the following entries are already answered.
O=C(O)CC[C@H](NC(=O)N[C@@H](CCCCNC(=O)[C@H](Cc1ccc2ccccc2c1)NC(=O)c1ccc2c(c1)CCN(C(=O)CN1CCN(CC(=O)O)CCN(CC(=O)O)CCN(CC(=O)O)CC1)C2)C(=O)O)C(=O)O [Compound E-3, reference compound] : 32.875
O=C(O)CC[C@H](NC(=O)NC(CCCCNC(=O)[C@H](Cc1ccc2ccccc2c1)NC(=O)[C@H]1CC[C@H](NC(=O)CCC(=O)NCCCC[C@H](NC(=O)CCC(=O)N[C@H]2CC[C@H](C(=O)N[C@@H](Cc3ccc4ccccc4c3)C(=O)NCCCC[C@H](NC(=O)N[C@@H](CCC(=O)O)C(=O)O)C(=O)O)CC2)C(=O)NCCNC(=O)CN2CCN(CC(=O)O)CCN(CC(=O)O)CCN(CC(=O)O)CC2)CC1)C(=O)O)C(=O)O (some centres unmarked) : 12.015
O=C(O)CC[C@H](NC(=O)N[C@@H](CCCCNC(=O)[C@H](Cc1ccc2ccccc2c1)NC(=O)c1ccc2c(c1)CCN(C(=O)CCC(=O)NCC(=O)N1CN(C(=O)CNC(=O)CCC(=O)N3CCc4cc(C(=O)N[C@@H](Cc5ccc6ccccc6c5)C(=O)NCCCC[C@H](NC(=O)N[C@@H](CCC(=O)O)C(=O)O)C(=O)O)ccc4C3)CN(C(=O)CNC(=O)CN3CCN(CC(=O)O)CCN(CC(=O)O)CCN(CC(=O)O)CC3)C1)C2)C(=O)O)C(=O)O : 43.175
O=C(O)CC[C@H](NC(=O)NC(CCCCNC(=O)[C@H](Cc1ccc2ccccc2c1)NC(=O)c1ccc(C2CCN(C(=O)CNC(=O)c3cc(NC(=O)COCCOCCNC(=O)CN4CCN(CC(=O)O)CCN(CC(=O)O)CCN(CC(=O)O)CC4)cc(C(=O)NCC(=O)N4CCC(c5ccc(C(=O)N[C@@H](Cc6ccc7ccccc7c6)C(=O)NCCCC[C@H](NC(=O)N[C@@H](CCC(=O)O)C(=O)O)C(=O)O)cc5)CC4)c3)CC2)cc1)C(=O)O)C(=O)O (some centres unmarked) : 77.54

# ---- query compound ----
Q: Request body: readout Tumor uptake, system PSMA-positive 22rv1 tumor-bearing mouse, query O=C(O)CC[C@H](NC(=O)NC(CCCCNC(=O)[C@H](Cc1ccc2ccccc2c1)NC(=O)[C@H]1CC[C@H](NC(=O)COCCOCCNC(=O)c2cc(NC(=O)CCCCCCCNC(=O)CN3CCN(CC(=O)O)CCN(CC(=O)O)CCN(CC(=O)O)CC3)cc(C(=O)NCCOCCOCC(=O)N[C@H]3CC[C@H](C(=O)N[C@@H](Cc4ccc5ccccc5c4)C(=O)NCCCC[C@H](NC(=O)N[C@@H](CCC(=O)O)C(=O)O)C(=O)O)CC3)c2)CC1)C(=O)O)C(=O)O (some centres unmarked) . Return the value.
A: 19.46
